Target: dihydroorotase (ScDHOase) (Saccharomyces cerevisiae, UniProt P20051)
Sequence (P20051 1-364): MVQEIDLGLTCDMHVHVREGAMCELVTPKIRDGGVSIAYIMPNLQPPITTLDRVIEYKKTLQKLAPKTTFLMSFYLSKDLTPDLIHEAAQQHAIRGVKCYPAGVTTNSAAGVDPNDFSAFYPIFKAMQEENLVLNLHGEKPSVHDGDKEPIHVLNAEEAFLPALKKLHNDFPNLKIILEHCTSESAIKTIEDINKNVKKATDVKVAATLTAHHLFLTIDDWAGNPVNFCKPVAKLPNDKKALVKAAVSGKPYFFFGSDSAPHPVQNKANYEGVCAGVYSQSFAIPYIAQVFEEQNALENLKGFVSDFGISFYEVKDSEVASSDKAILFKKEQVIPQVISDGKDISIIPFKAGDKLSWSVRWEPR
Attribute Measured: pKd
pKd is defined as minus the log10 of a concentration measured in mol/L.

## Input Which pKd is listed for O=C(O)c1[nH]c(=O)[nH]c(=O)c1F [5-FOA, 5-fluoroorotate] ?
## Output 4.08
